Where these numbers come from: paper PMC4560162

system: Petroselinum xyloglucan endotransglucosylase (XET) activity; assay: Fluorescent dot-blot XET screen (cellulose-bound xyloglucan + XGO–SR on paper, in the dark); type: biochemical, parsley; details: EDI collection, 0.4 mg/ml in enzyme mixture
readout.kind: coagulation ('type c' effect) in dot-blot

O=C(O[C@@H]1Cc2c(O)cc(O)cc2O[C@@H]1c1cc(O)c(O)c(O)c1)c1cc(O)c(O)c(O)c1 [epigallocatechin gallate, (−)-epigallocatechin gallate]    coagulation
O=c1cc(-c2ccccc2)oc2cc(O)c(O)c(O)c12    coagulation
O=C(CCc1ccc(O)cc1)c1c(O)cc(O)cc1O    coagulation
O=c1cc(-c2ccc(O)cc2)oc2cc(O)cc(O)c12    coagulation
O=c1cc(-c2ccc(O)c(O)c2)oc2cc(O)cc(O)c12    coagulation

Pending compound:
Ask: // coagulation ('type c' effect) in dot-blot lookup, key: O=C1OC(c2ccc(O)cc2)(c2ccc(O)cc2)c2ccccc21
Result: coagulation

* * *

system: Petroselinum xyloglucan endotransglucosylase (XET) activity; assay: Fluorescent dot-blot XET screen (cellulose-bound xyloglucan + XGO–SR on paper, in the dark); assay type: biochemical, parsley; conditions: EDI 0.4 mg/ml, LATCA 50 μM; 2 h, dark, cellulose-bound xyloglucan
readout.kind: effect on XET activity in dot-blot (inhibition / promotion)

Below are worked cases with known answers.
O=C(O)[C@H](O)[C@@H](O)[C@H](O)CO    promotion
O=C(O[C@@H]1Cc2c(O)cc(O)cc2O[C@@H]1c1cc(O)c(O)c(O)c1)c1cc(O)c(O)c(O)c1 [epigallocatechin gallate, (−)-epigallocatechin gallate]    promoted
C=C[C@@]1(C)CC(=O)[C@]2(O)[C@@]3(C)[C@@H](O)CCC(C)(C)[C@@H]3[C@H](O)[C@H](OC(C)=O)[C@@]2(C)O1    stimulatory
COc1ccc([C@@H]2CC(=O)c3c(O)cc(O)cc3O2)cc1O    slightly enhanced
O=c1cc(-c2ccc(O)c(O)c2)oc2cc(O)cc(O)c12    promoted
Cc1cc2nc3cc(C)c(N)cc3[n+](-c3ccccc3)c2cc1N    stimulatory

Ask: // effect on XET activity in dot-blot (inhibition / promotion) lookup, key: O=C(O)c1ccccc1C(=O)O
Result: promotion

Ask: Next compound: O=C(O)[C@]1(O)C[C@@H](O)[C@@H](O)[C@H](O)C1
Result: promoted

Ask: Next compound: O=c1cc(-c2ccc(O)cc2)oc2cc(O)cc(O)c12
Result: promoted

Ask: Next compound: C[C@@H]1C/C=C/C=C/C=C/C=C/[C@H](O[C@@H]2O[C@H](C)[C@@H](O)[C@H](N)[C@@H]2O)C[C@@H]2O[C@](O)(C[C@@H](O)C[C@H]3O[C@@H]3/C=C/C(=O)O1)C[C@H](O)[C@H]2C(=O)O
Result: stimulatory

Ask: Next compound: O=c1cc(-c2ccccc2)oc2cc(O)c(O)c(O)c12
Result: promoted

Ask: Next compound: OCc1c[nH]c2ccccc12
Result: stimulatory

Ask: Next compound: O=C(CCc1ccc(O)cc1)c1c(O)cc(O)cc1O[C@@H]1O[C@H](CO)[C@@H](O)[C@H](O)[C@H]1O
Result: slightly enhanced

Ask: Next compound: O=C(CCc1ccc(O)cc1)c1c(O)cc(O)cc1O
Result: promoted
